- TARGET OR SYSTEM: PDE10A (UniProt Q9Y233)
- EXPERIMENTAL DETAILS: Measurement of PDE activity (HTRF cAMP assay, recombinant enzyme)
- CONDITION INFO: 20 nM cyclic nucleotide substrate, 60 minutes at 29 C
- Method: The recombinant PDE proteins are used in in vitro enzymatic reaction for measurement of PDE activity. […] The enzymatic activity of PDEs was determined by cAMP measurement kit from CisBio (IBA) using HTRF technology. The PDE enzymatic reaction was carried out in assay buffer (20 mM Tris-HCl pH7.5, 10 mM MgCl2, 0.1% bovine serum albumin) containing enzyme and substrate. […] The inhibitory effect of compound was determined by incubating various concentration of inhibitor in the enzymatic assay. […]
pIC50: −log10 of the molar value.
Recorded measurements of pIC50, one per entry

Below, 10 compounds whose answers are already recorded.
LINE NOTATION | pIC50
Cn1cc2c(c(N3CCOCC3)c1=O)C(=O)N(CCc1nc3ccccc3s1)C2 | 6.70 to 7.00
Cn1nccc1-c1c2c(cn(C)c1=O)CN(CCc1ccc3ccccc3n1)C2=O | < 6.30
Cn1cc2c(c(N3CCOCC3)c1=O)C(=O)N(CCc1nc3ccccc3n1C)C2 | > 7.00
Cn1cc2c(c(N3CCOCC3)c1=O)CN(CCc1ccc3ccccc3n1)C2=O | < 6.30
Cn1cc2c(c(N3CCS(=O)(=O)CC3)c1=O)C(=O)N(CCc1ccc3ccccc3n1)C2 | 6.70 to 7.00
Cn1cc2c(c(N3CCOCC3)c1=O)C(=O)N(CCc1ccc3ccccc3n1)C2=O | > 7.00
Cn1cc2c(c(N3CCOCC3)c1=O)C(=O)N(CC(F)(F)c1ccc3ccccc3n1)C2 | > 7.00
Cn1cc2c(c(-c3cccnc3)c1=O)C(=O)N(CCc1nc3ccccc3n1C)C2 | 6.30 to 6.70
COc1ccc(-c2c3c(cn(C)c2=O)CN(CCc2ccc4ccccc4n2)C3=O)cc1 | 6.70 to 7.00
CCn1cc2c(c(N3CCOCC3)c1=O)C(=O)N(CCc1ccc3ccccc3n1)C2 | > 7.00

# get_value(readout='pIC50', item= Cn1cc2c(c(-c3ccncc3)c1=O)C(=O)N(CCc1nc3ccccc3s1)C2 )
< 6.30

For Cn1cc2c(c(-c3ccncc3)c1=O)C(=O)N(CCc1ccc3ccccc3n1)C2 , what is its reported pIC50?
6.70 to 7.00
